Literature pKi values, system: UniProtKB P29275.
- testedSystem: UniProtKB P29275
- Sequence (P29275 whole entry): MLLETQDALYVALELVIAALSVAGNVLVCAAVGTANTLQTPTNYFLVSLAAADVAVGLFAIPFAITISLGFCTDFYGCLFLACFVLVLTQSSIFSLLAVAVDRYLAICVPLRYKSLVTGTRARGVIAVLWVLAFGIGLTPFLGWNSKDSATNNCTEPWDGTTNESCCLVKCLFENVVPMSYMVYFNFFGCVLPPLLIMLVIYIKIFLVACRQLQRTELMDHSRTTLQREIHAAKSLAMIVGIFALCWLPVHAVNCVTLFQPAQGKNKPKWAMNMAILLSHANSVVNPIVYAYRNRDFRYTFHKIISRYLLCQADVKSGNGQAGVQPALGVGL
pKi: −log10 of the molar value.
Would you please tag the item class 1 when its pKi is 7 or above, and class 0 when it is below?

Answered cases to consult:
compound	label
CC(=O)Nc1nc2ccccc2n2nc(-c3ccco3)nc12	class 0
COCCn1c(=O)c2c(nc(Cc3c(F)cccc3F)n2C)n(Cc2ccco2)c1=O	class 1
CCCn1c(=O)c2nc(-c3cc(OCC(=O)c4ccc(F)cc4)n(C)n3)[nH]c2n(CCC)c1=O	class 0

QUERY: Exam item: decide whether the reported pKi for `CCCCn1c(=O)[nH]c2nc(-c3cnn(Cc4cccc(F)c4)c3)[nH]c2c1=O` is at least 7.
RESULT: class 1

QUERY: Exam item: decide whether the reported pKi for `CCOc1cccc2c(C)nc(N=C(N)N)nc12` is at least 7.
RESULT: class 0

QUERY: Exam item: decide whether the reported pKi for `CCCCn1c(=O)c2nc[nH]c2n(CC)c1=O` is at least 7.
RESULT: class 0

QUERY: Exam item: decide whether the reported pKi for COc1cccc2cc(C(=O)NCC(O)c3ccccc3)c(=N)oc12 (configuration not stated) is at least 7.
RESULT: class 0

QUERY: Exam item: decide whether the reported pKi for `CS(=O)(=O)c1ccc(C(=O)c2sc(NC(=O)c3ccccc3)nc2-c2ccccc2)cc1` is at least 7.
RESULT: class 0

QUERY: Exam item: decide whether the reported pKi for `Cn1cnc2c1c(=O)n(CC#N)c(=O)n2C` is at least 7.
RESULT: class 0

QUERY: Exam item: decide whether the reported pKi for CC(Oc1ccc(-c2cc3c([nH]2)c(=O)n(C)c(=O)n3C)cc1)C(=O)Nc1ccc(F)cc1 (configuration not stated) is at least 7.
RESULT: class 1

QUERY: Exam item: decide whether the reported pKi for `C#CCn1c(=O)n(C)c(=O)c2c1ncn2C` is at least 7.
RESULT: class 0

QUERY: Exam item: decide whether the reported pKi for `COc1ccc(C(=O)Nc2nc(-c3ccccc3)c(-c3nc4ccccc4c(=O)n3-c3ccc(C)cc3)s2)cc1` is at least 7.
RESULT: class 0

###

Literature Ki values, system: Adenosine receptor A2b (Homo sapiens).
Entries whose Ki is below 0.08 µM take met; entries at or above 0.08 µM take not met.

molecule	label
CC1=C(C(=O)OC(C)C)C(c2nccs2)n2c(nc3ccccc32)N1 (racemic)	not met
CCCCn1c(=O)[nH]c2nc(-c3cnn(Cc4noc(-c5ccc(Cl)cc5)n4)c3)[nH]c2c1=O	met

QUERY: Does the reported Ki of `Cn1c(=O)c2c(nc(-c3ccccc3)n2O)n(C)c1=O` stay below 0.08 µM?
RESULT: not met

###

- testedSystem: Adenosine receptor A2b (Homo sapiens)
- Sequence (P29275 whole entry): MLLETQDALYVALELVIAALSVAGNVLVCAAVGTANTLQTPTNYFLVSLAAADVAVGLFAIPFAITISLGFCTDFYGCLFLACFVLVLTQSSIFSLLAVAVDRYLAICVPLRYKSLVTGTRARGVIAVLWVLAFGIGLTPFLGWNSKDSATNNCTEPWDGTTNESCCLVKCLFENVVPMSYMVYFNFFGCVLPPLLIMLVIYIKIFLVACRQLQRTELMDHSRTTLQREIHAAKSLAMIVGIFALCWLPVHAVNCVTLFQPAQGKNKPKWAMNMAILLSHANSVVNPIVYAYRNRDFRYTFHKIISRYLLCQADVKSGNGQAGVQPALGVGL
Literature Ki values, system: Adenosine receptor A2b (Homo sapiens).

// below: answered compounds
compound	Ki
O=C(Nc1ccncc1)Nc1nc2nn(CCCOCc3ccccc3)cc2c2nc(-c3ccco3)nn12	> 1000 nM
COc1cc(OCC(=O)Nc2ccc(F)cc2)ccc1-c1cc2c([nH]1)c(=O)n(C)c(=O)n2C	25.1 nM
CCCn1c(=O)c2[nH]c(-c3ccc(S(=O)(=O)O)cc3)nc2n(CCC)c1=O	250 nM
CC1(C)NC(C)(C)c2cc(Nc3ncnc4c3ncn4[C@@H]3O[C@H](CO)[C@@H](O)[C@H]3O)ccc21	> 10000 nM
CCCn1c(=O)c2nc(-c3ccc(/C=C/C(=O)O)cc3)[nH]c2n(CCC)c1=O	60 nM
CCOC(=O)C1=C(C)Nc2nc3ccccc3n2C1c1ccon1 (racemic)	789 nM
CCOC(=O)C1=C(C)N=C(S)NC1c1ccco1 (racemic)	608 nM
CCn1c(=O)c2[nH]c(-c3cnn(Cc4ccccc4)c3)nc2n(CC)c1=O	19 nM
CC(Oc1ccc(-c2cc3c([nH]2)c(=O)n(C)c(=O)n3C)cc1)C(=O)Nc1ccc(Br)cc1 (configuration not stated)	1.55 nM
O=C(Nc1nc(-c2ccccc2)c(C(=O)c2ccc(Cl)cc2)s1)c1ccco1	> 1000 nM

Please examine the following record next.
`COc1ccc(C(=O)Nc2nc(-c3ccccc3)c(-c3nc4ccccc4c(=O)n3-c3ccccc3)s2)cc1` has a reported Ki of > 100 nM

###

Protein target, amino acids: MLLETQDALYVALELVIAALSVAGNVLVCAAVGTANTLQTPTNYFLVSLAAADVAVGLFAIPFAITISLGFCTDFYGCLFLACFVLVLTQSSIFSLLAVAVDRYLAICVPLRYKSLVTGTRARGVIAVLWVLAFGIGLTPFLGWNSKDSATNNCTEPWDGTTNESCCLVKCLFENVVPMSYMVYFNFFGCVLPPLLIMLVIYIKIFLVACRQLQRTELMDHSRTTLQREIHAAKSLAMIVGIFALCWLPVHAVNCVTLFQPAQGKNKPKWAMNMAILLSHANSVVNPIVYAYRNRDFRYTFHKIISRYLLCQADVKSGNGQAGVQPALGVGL
pKi: −log10 of the molar value.
Literature pKi values, system: the protein given by its sequence.

// below: answered compounds
Cc1ccc(C(=O)Nc2nc(-c3ccccc3)c(C(=O)c3ccccc3)s2)cc1 < 6.00
CCOC(=O)c1cnn(-c2nc(NC3CCCCC3)c3ncn([C@@H]4O[C@H](CO)[C@@H](O)[C@H]4O)c3n2)c1 < 5.22
Cc1ccc(-n2c(-c3sc(NC(=O)c4ccccc4)nc3-c3ccccc3)nc3ccccc3c2=O)cc1 < 7.00

Please examine the following record next.
`O=c1[nH]c2nc(-c3cnn(Cc4ccccc4)c3)[nH]c2c(=O)n1Cc1ccccc1` has a reported pKi of < 5.22

###

Literature Ki values, system: Adenosine receptor A2b (Homo sapiens, UniProt P29275).

CNC(=O)c1cnn(-c2nc(NC3CCCCC3)c3ncn([C@@H]4O[C@H](CO)[C@@H](O)[C@H]4O)c3n2)c1 > 6000 nM
CNc1nc(-c2ccccc2)c(C(=O)c2ccccc2)s1 > 1000 nM

Please examine the following record next.
`CCCn1c(=O)c2nc(-c3ccc(OCC(=O)c4ccc(I)cc4)cn3)[nH]c2n(CCC)c1=O` has a reported Ki of > 1000 nM

###

Literature Ki values, system: Adenosine receptor A2b (Homo sapiens).
Entries whose Ki is below 50 nM take Met; entries at or above 50 nM take Not met.

compound	testedSystem	label
O=C(Nc1cccnc1)Nc1nc2nn(CCOCc3ccccc3)cc2c2nc(-c3ccco3)nn12	Adenosine receptor A2b (Homo sapiens)	Not met
COc1ccc(-n2c(-c3sc(NC(=O)c4ccccc4)nc3-c3ccccc3)nc3ccccc3c2=O)cc1	Adenosine receptor A2b (Homo sapiens)	Not met
CNc1nc(-c2ccccc2)c(C(=O)c2ccc(Cl)cc2)s1	Adenosine receptor A2b (Homo sapiens)	Not met

QUERY: Does the reported Ki of `CCCc1c(-c2nc3c([nH]2)c(=O)n(CCC)c(=O)n3CCC)cnn1-c1ccccc1` stay below 50 nM?
RESULT: Not met

QUERY: Does the reported Ki of `CCCn1c(=O)c2[nH]c(-c3ccc(OCC(=O)Nc4ccc(C(C)=O)cc4)cc3)c(Cl)c2n(CCC)c1=O` stay below 50 nM?
RESULT: Not met

QUERY: Does the reported Ki of `COc1ccc(CCCn2ncc3c2nc(N)n2nc(-c4ccco4)nc32)cc1` stay below 50 nM?
RESULT: Not met

QUERY: Does the reported Ki of `CCCn1c(=O)c2[nH]c(-c3ccco3)c(OS(=O)(=O)O)c2n(CCC)c1=O` stay below 50 nM?
RESULT: Met

QUERY: Does the reported Ki of `CCCn1c(=O)[nH]c(=O)c2[nH]c(-c3cnn(Cc4ccccc4)c3)nc21` stay below 50 nM?
RESULT: Not met
